Values compiled from patent US20240150797A1.

test: Specific activity of purified CHI, absorbance decrease at 384 nm, 4-O-methyl butein; format: biochemical; settings: purified CHI in 50 mM PBS, 100 μM substrate, 25° C. Also: unit not given here.
Listed below: Specific activity, 4-O-methyl butein values for each entry.
Reply with the value as a number alone.

QUERY: # Specific activity, 4-O-methyl butein lookup, item CHI6: Chalcone isomerase from Lachnoclostridium sp., access no. HCD45524.1 (protein, listed as Lachnoclostridium sp.) GTEFDPMRSFIYVDVIKEEYRHKLQHWLYFHHIPESISQFEPYCTKYAFYNALPVPEGGERFGTARMQITEHSWLVNIMDPALKVKAFQEYMPIEALKWQGTVPETAGDVLMSGDDARCTGGNNGCMPFVFAFCPMWWEEDVKGAGRTLTEGANYRWNFALTYPEGISKEEGDKWLFEEVFPYFEANNCCTRILTSKVRQEINGCPMYRVVEMWFTGPTAWHHLAVETADKIKSPSWAKDGDVFPYLKSGFEIRGAFVTDYPTCDAYSQYRGYIPRR
RESULT: 0.1

Please look at the following molecule next.
QUERY: Data request, read-out Specific activity, 4-O-methyl butein, for CHI8: Chalcone isomerase from Roseburia sp., access no. SCJ10619.1 (protein, listed as Roseburia sp.) RSLIYVDVAKEQYRVKLNHWLYAVHVPESISKFRPYVSQYAFYNALPVPPLGEQFGTVRMQLTEHYWQVNPMDVSMAVNVFTETFPTEVLIWQGNMPENAIALNYEGDEARSAKVENCNPFVFAFLPISWEEDLKGAGRTMADGPNYRWNFALHYPDGVSVETGDQWFYEKFVPAFLEIPEATRMVTSKIIKEINDCPMDRVVEIWFEGPDQWSAAMEKAKSIEPPEWAQEETFPYLKPYQNIMGVFVADNISSDNLNNHRGYITMR
RESULT: 1.2
